Can you tell me pIC50 for the items I'm about to list?
Tgt: RBP4-TTR interaction (Homo sapiens (Human))
Test Name: TR-FRET (HTRF) assay for retinol-induced RBP4-TTR interaction
Conditions Used: in the presence of 1 μM retinol; read-out: HTRF assay for antagonists of RBP4-TTR interaction: IC50
Counter-ions that a name gives are not always drawn.
# pIC50: negative log10 of molar concentration; output just the value

**Q:** Can you share its pIC50? I mean this compound: COC(=O)N1Cc2[nH]nc(C(=O)N3CCC(c4ccc(F)c(F)c4C(F)(F)F)CC3)c2C1
**A:** 7.85

**Q:** Can you share its pIC50? I mean this compound: CC(C)(C)CN1CCc2c(C(=O)N3CCC(c4ccc(F)c(F)c4C(F)(F)F)CC3)n[nH]c2C1
**A:** 6.77

**Q:** Can you share its pIC50? I mean this compound: N#Cc1ccc2nnc(C(=O)N3CCC(c4cc(F)cc(F)c4C(F)(F)F)CC3)n2c1
**A:** 7.98

**Q:** Can you share its pIC50? I mean this compound: COC(=O)N1CCc2c(C(=O)N3CCC(c4ccc(F)c(F)c4C(F)(F)F)CC3)n[nH]c2C1
**A:** 7.63

**Q:** Can you share its pIC50? I mean this compound: O=C(c1n[nH]c2c1CCNC2)N1CCC(c2cccc(F)c2C(F)(F)F)CC1 [Compound 30, Hydrochloride]
**A:** 7.36

**Q:** Can you share its pIC50? I mean this compound: O=C(O)CN1CCc2c(C(=O)N3CCC(c4ccc(F)c(F)c4C(F)(F)F)CC3)n[nH]c2C1
**A:** 6.96

**Q:** Can you share its pIC50? I mean this compound: N#Cc1ccc2nnc(C(=O)N3CCC(c4c(F)cccc4C(F)(F)F)CC3)n2c1
**A:** 7.04

**Q:** Can you share its pIC50? I mean this compound: CC(C)(C)CN1CCc2[nH]nc(C(=O)N3CCC(c4ccc(F)c(F)c4C(F)(F)F)CC3)c2C1
**A:** 7.37
